- test_description: Binding affinity to Escherichia coli GDPNP-labelled EF-Tu by surface plasmon resonance analysis
measured_metric: Kd (nM)
Numbers only, in nM.

A selection of reference data follows.
{"columns": ["chemical_smiles", "scale_unit", "Kd"],
 "data": [
  ["CNC(=O)C[C@@H]1NC(=O)c2csc(n2)-c2ccc(-c3nc(N(CCCCCC(=O)O)C(=O)O[C@H]4CC[C@H](C(=O)O)CC4)cs3)nc2-c2csc(n2)-c2csc(n2)[C@H]([C@@H](O)c2ccccc2)NC(=O)CNC(=O)c2nc(sc2COC)[C@H](C(C)C)NC(=O)c2nc1sc2C", "nM", 6],
  ["CNC(=O)C[C@@H]1NC(=O)c2csc(n2)-c2ccc(-c3nc(NC(=O)[C@H]4CC[C@H](C(=O)O)CC4)cs3)nc2-c2csc(n2)-c2csc(n2)[C@H]([C@@H](O)c2ccccc2)NC(=O)CNC(=O)c2nc(sc2COC)[C@H](C(C)C)NC(=O)c2nc1sc2C", "nM", 43],
  ["CNC(=O)C[C@@H]1NC(=O)c2csc(n2)-c2ccc(-c3nc(C4=N[C@H](C(=O)N5CCC[C@H]5C(N)=O)CO4)cs3)nc2-c2csc(n2)-c2csc(n2)[C@H]([C@@H](O)c2ccccc2)NC(=O)CNC(=O)c2nc(sc2COC)[C@H](C(C)C)NC(=O)c2nc1sc2C", "nM", 3],
  ["CNC(=O)C[C@@H]1NC(=O)c2csc(n2)-c2ccc(-c3nc(N(CCCC(=O)O)C(=O)OCCCC(=O)O)cs3)nc2-c2csc(n2)-c2csc(n2)[C@H]([C@@H](O)c2ccccc2)NC(=O)CNC(=O)c2nc(sc2COC)[C@H](C(C)C)NC(=O)c2nc1sc2C", "nM", 8]
]}

Give the measured Kd of `CNC(=O)C[C@@H]1NC(=O)c2csc(n2)-c2ccc(-c3nc(N(CCCCC(=O)O)C(=O)O[C@H]4CC[C@H](C(=O)O)CC4)cs3)nc2-c2csc(n2)-c2csc(n2)[C@H]([C@@H](O)c2ccccc2)NC(=O)CNC(=O)c2nc(sc2COC)[C@H](C(C)C)NC(=O)c2nc1sc2C` .
6

* * *

- test_description: Oral bioavailability in Sprague-Dawley rat
- Type: ADME, organism-based
- condition_parameters: in vivo
measured_metric: bioavailability

Give the measured bioavailability of CNC(=O)C[C@@H]1NC(=O)c2csc(n2)-c2ccc(-c3nc(N(CCCCC(=O)O)C(=O)O[C@H]4CC[C@H](C(=O)O)CC4)cs3)nc2-c2csc(n2)-c2csc(n2)[C@H]([C@@H](O)c2ccccc2)NC(=O)CNC(=O)c2nc(sc2COC)[C@H](C(C)C)NC(=O)c2nc1sc2C [LFF-571] .
< 0.1%

* * *

Kindly supply the reported MIC values for the records listed here.
- Tested on: Enterococcus faecium
- test_description: Antibacterial activity against Enterococcus faecium 7130724 by broth microdilution method
- Format: functional
One number for each entry, in µg/mL.

A selection of reference data follows.
{"columns": ["compound", "obs_value"],
 "data": [
  ["CNC(=O)C[C@@H]1NC(=O)c2csc(n2)-c2ccc(-c3nc(N(CCCCC(=O)O)C(=O)O[C@@H]4CC[C@@H](C(=O)O)C[C@H]4CCCCC(=O)O)cs3)nc2-c2csc(n2)-c2csc(n2)[C@H]([C@@H](O)c2ccccc2)NC(=O)CNC(=O)c2nc(sc2COC)[C@H](C(C)C)NC(=O)c2nc1sc2C", 4],
  ["CNC(=O)C[C@@H]1NC(=O)c2csc(n2)-c2ccc(-c3nc(N(CCCCC(=O)O)C(=O)OCCC(CCCCC(=O)O)C(=O)O)cs3)nc2-c2csc(n2)-c2csc(n2)[C@H]([C@@H](O)c2ccccc2)NC(=O)CNC(=O)c2nc(sc2COC)[C@H](C(C)C)NC(=O)c2nc1sc2C (stereo partly drawn)", 16],
  ["CNC(=O)C[C@@H]1NC(=O)c2csc(n2)-c2ccc(-c3nc(N(CCCCC(=O)O)C(=O)OCC4CC4C(=O)O)cs3)nc2-c2csc(n2)-c2csc(n2)[C@H]([C@@H](O)c2ccccc2)NC(=O)CNC(=O)c2nc(sc2COC)[C@H](C(C)C)NC(=O)c2nc1sc2C (stereo partly drawn)", 0.5],
  ["CNC(=O)C[C@@H]1NC(=O)c2csc(n2)-c2ccc(-c3nc(N(CCCCC(=O)O)C(=O)[C@H]4CC[C@H]4C(=O)O)cs3)nc2-c2csc(n2)-c2csc(n2)[C@H]([C@@H](O)c2ccccc2)NC(=O)CNC(=O)c2nc(sc2COC)[C@H](C(C)C)NC(=O)c2nc1sc2C", 32],
  ["CNC(=O)C[C@@H]1NC(=O)c2csc(n2)-c2ccc(-c3nc(N(CCCCC(=O)O)C(=O)O[C@]4(CCCCC(=O)O)CC[C@@H](C(=O)O)CC4)cs3)nc2-c2csc(n2)-c2csc(n2)[C@H]([C@@H](O)c2ccccc2)NC(=O)CNC(=O)c2nc(sc2COC)[C@H](C(C)C)NC(=O)c2nc1sc2C", 8]
]}

Give the measured MIC of `CNC(=O)C[C@@H]1NC(=O)c2csc(n2)-c2ccc(-c3nc(NC(=O)[C@H]4CC[C@H](C(=O)O)CC4)cs3)nc2-c2csc(n2)-c2csc(n2)[C@H]([C@@H](O)c2ccccc2)NC(=O)CNC(=O)c2nc(sc2COC)[C@H](C(C)C)NC(=O)c2nc1sc2C` .
0.06

* * *

Kindly supply the reported inhibition at 2 µM values for the records listed here.
- System: Escherichia coli
- test_description: Inhibition of protein synthesis in Escherichia coli S30 extract at 2 uM after 75 mins by luciferase based luminescence assay relative to GE2270A
- Assay type: functional
Could you kindly put the unit after your number?

A selection of reference data follows.
{"columns": ["compound", "obs_value"],
 "data": [
  ["CNC(=O)C[C@@H]1NC(=O)c2csc(n2)-c2ccc(-c3nc(N(CCCC(CCCCCCC(=O)O)C(=O)O)C(=O)O[C@H]4CC[C@H](C(=O)O)CC4)cs3)nc2-c2csc(n2)-c2csc(n2)[C@H]([C@@H](O)c2ccccc2)NC(=O)CNC(=O)c2nc(sc2COC)[C@H](C(C)C)NC(=O)c2nc1sc2C (some centres undefined)", "50%"],
  ["CNC(=O)C[C@@H]1NC(=O)c2csc(n2)-c2ccc(-c3nc(N(CCCCC(=O)O)C(=O)[C@H]4CC[C@@H](C(=O)O)O4)cs3)nc2-c2csc(n2)-c2csc(n2)[C@H]([C@@H](O)c2ccccc2)NC(=O)CNC(=O)c2nc(sc2COC)[C@H](C(C)C)NC(=O)c2nc1sc2C", "30%"],
  ["CNC(=O)C[C@@H]1NC(=O)c2csc(n2)-c2ccc(-c3nc(N(C/C=C/C(=O)O)C(=O)O[C@H]4CC[C@H](C(=O)O)CC4)cs3)nc2-c2csc(n2)-c2csc(n2)[C@H]([C@@H](O)c2ccccc2)NC(=O)CNC(=O)c2nc(sc2COC)[C@H](C(C)C)NC(=O)c2nc1sc2C", "67%"]
]}

# return inhibition at 2 µM for each item in the list
1. CNC(=O)C[C@@H]1NC(=O)c2csc(n2)-c2ccc(-c3nc(N(CCCCC(=O)O)C(=O)[C@H]4CC[C@H]4C(=O)O)cs3)nc2-c2csc(n2)-c2csc(n2)[C@H]([C@@H](O)c2ccccc2)NC(=O)CNC(=O)c2nc(sc2COC)[C@H](C(C)C)NC(=O)c2nc1sc2C
2. CNC(=O)C[C@@H]1NC(=O)c2csc(n2)-c2ccc(-c3nc(N(CCCCC(=O)O)C(=O)[C@H]4CC[C@H](C(=O)O)CC4)cs3)nc2-c2csc(n2)-c2csc(n2)[C@H]([C@@H](O)c2ccccc2)NC(=O)CNC(=O)c2nc(sc2COC)[C@H](C(C)C)NC(=O)c2nc1sc2C
3. CNC(=O)C[C@@H]1NC(=O)c2csc(n2)-c2ccc(-c3nc(N(CCOCC(=O)O)C(=O)O[C@H]4CC[C@H](C(=O)O)CC4)cs3)nc2-c2csc(n2)-c2csc(n2)[C@H]([C@@H](O)c2ccccc2)NC(=O)CNC(=O)c2nc(sc2COC)[C@H](C(C)C)NC(=O)c2nc1sc2C
4. CNC(=O)C[C@@H]1NC(=O)c2csc(n2)-c2ccc(-c3nc(N(CCCCCC(=O)O)C(=O)O[C@H]4CC[C@H](C(=O)O)CC4)cs3)nc2-c2csc(n2)-c2csc(n2)[C@H]([C@@H](O)c2ccccc2)NC(=O)CNC(=O)c2nc(sc2COC)[C@H](C(C)C)NC(=O)c2nc1sc2C
5. CNC(=O)C[C@@H]1NC(=O)c2csc(n2)-c2ccc(-c3nc(N(CCCCC(=O)O)C(=O)OCC(CCCCC(=O)O)CC(=O)O)cs3)nc2-c2csc(n2)-c2csc(n2)[C@H]([C@@H](O)c2ccccc2)NC(=O)CNC(=O)c2nc(sc2COC)[C@H](C(C)C)NC(=O)c2nc1sc2C (some centres undefined)

["30%", "30%", "67%", "67%", "50%"]

These data points were gathered from ChEMBL document CHEMBL2062386.
